target: SARS-CoV-2 RBD (receptor binding domain of spike protein of SARS-CoV-2) (SARS-CoV-2, UniProt P0DTC2 319-541); assay: HTRF ACE2/RBD binding assay (665/620 ratio); blocked ligand: ACE2
measured parameter: IC50 (µg/mL)

* Antibody 8-1 (antibody, V domains shown) VH: EVQLVESGGGLIQPGGSLRLSCAASGLTVSSNYMTWVRQAPGKGLEWVSVIYSGGSTFYAESVKGRFTISRDNSKNTLYLQMNSLRAEDTAVYYCARDLVVYGMDVWGQGTTVIVSS VL: DIQLTQSPSFLSASVGDRVTITCRASQGISSDLAWYQQKPGKAPKLLIYAASTLQSGVPSRFSGSGSGTEFTLTISSLQPEDFATYYCQQLNSHPLAFGPGTKVDIK | 0.103
* Antibody 8-3 (antibody, V domains shown) VH: EVQLVESGGGLVQPGGSLRLSCAASGITVSSNYMNWVRQAPGKGLDWVSVIYSGGSTFYADSVKGRFIISRDNSKNTLFLQMDSLRVEDTAVYYCARDLVVRGVDIWGQGTMVTVSS VL: DIQLTQSPSFLSASVGDRVTITCRASQGISSDLAWYHQKPGKAPKLLIYAASTLQSGVPSRFSGSGSGTEFTLTISSLQPEDFATYYCQQLNSYRGLIFGGGTKVEIK | 0.109
* Antibody 9-1 (antibody, V domains shown) VH: QLQLQESGPGLVKPSETLSLTCTVSGGSISSSTYYWAWIRQPPGKGLEWIGSIYYSGSTYYNPSLKSRVTISVHTSKNQFSLKLTSVTAADTAVYYCARSMGLHDYWGQGTLVTVSS VL: DIQMTQSPSSLSASVGDRVTITCRASQGIGNSLAWYQQKPGRAPKFLLYAASTLESGVPSRFSGSGSGTHFTLTISSLQPEDFATYFCQQYYSTPPYTFGQGTRLEIK | 0.105
* Antibody 34-2 (antibody, V domains shown) VH: EVQLVESGGGLVQPGRSLRLSCAASGFTFDESAMHWVRQAPGEGLEWVSGISWNSGRIAYADSVRGRFTISRDNAKNSLYLQMNSLRAEDTALYFCALTTSGWFSFDYWGQGTLVTVSS VL: SYVLTQPPSVSVAPGKTARITCGGNNIGSKSVHWYQQKPGQAPVPVIYYDSDRPSGIPERFSGSNSGNTATLTISRVEVGDEADYYCQVWDSSSDRAVFGGGTTLTVL | 0.115
* Antibody 29-2 (antibody, V domains shown) VH: QITLKESGPTLVKPTQTLTLTCTFSGFSLSSSGMGVGWIRQPPGKALEWLALIYWNDDKRYSPSLKSRLTITKDTSKNQVVLTLTNMDPVDTATYYCAHTTLYNNCPFDYWGQGTLVTVSS VL: SYVLTQPPSVSVAPGKTARITCGGNNIGSYSVHWYQQRPGQAPVLVIYYDSDRPSGIPERFSGSNSGNTATLTISRVEAGDEADYYCQVWDNSSNHPWVFGGGTKLTVL | 0.117
